Biological target: pre-pro-insulin glargine
measured.metric: Purity Insulin Glargine (area %)
The figure you give is taken to be in area %; do not add the unit.

Below: 2 proteins and their reported Purity Insulin Glargine.
protein	units	observed.measurement
trypsin variant SEQ ID NO: 90 (protein) IVGGYTCAANSIPYQVSLNSGSHRCGGSLINSQWVVSAAHCYKPRIQVRLGEHNIHVLEGNEQFINAAKIITHPNFNPNTLDNDIMLIKLSSPATLNSHVATVSLPTSCAAAGTECLISGWGNTASSGSSMPSLLQCLKAPVLSDSSCKSSYPGQITGNMICVGFLEGGKDSCQGDSGGPVVCNGQLQGIVSSGYGCAQKNKPGVYTKVCNYVNWIQQTIAAN	area %	89.5
trypsin variant SEQ ID NO: 74 (protein) IVGGYTCAANSIPYQVSLNSGSHRCGGSLINSQWVVSAAHCYKSRIQVRLGEHNIDVLEGNEQFINAAKIITHPNFNPNTLDNDIMLIKLSSPATLNSRVATVSLPRSCAAAGTECLISGWGNTKSSGSSYPSLLQCLKAPVLSDSSCKSSYPGQITGNMICVGFLEGGKDACQGDSGGPVVCNGQLQGIVSSGYGCAQKNKPGVYTKVCNYVNWIQQTIAAN	area %	82.4

Continue with the next protein.
Need Purity Insulin Glargine of trypsin variant SEQ ID NO: 4 (protein) IVGGYTCAANSIPYQVSLNSGSHRCGGSLINSQWVVSAAHCYKSRIQVRLGEHNIDVLEGNEQFINAAKIITHPNFNGNTLDNDIMLIKLSSPATLNSAVATVSLPRSCAAAGTECLISGWGNTKSSGSSYPSLLQCLKAPVLSDSSCKSSYPGQITGNMICVGFLEGGKDACQGDSGGPVVCNGQLQGIVSSGYGCAQKNKPGVYTKVCNYVNWIQQTIAAN , thanks.
86.4
